Values from patent EP1228063B1

Recorded IC50 for the following compounds
Target: NIH3T3 cells expressing the full length KDR receptor (Homo sapiens, UniProt P35968)
Construct: NIH3T3 cells expressing the full length KDR receptor
Sequence (P35968 20-1356): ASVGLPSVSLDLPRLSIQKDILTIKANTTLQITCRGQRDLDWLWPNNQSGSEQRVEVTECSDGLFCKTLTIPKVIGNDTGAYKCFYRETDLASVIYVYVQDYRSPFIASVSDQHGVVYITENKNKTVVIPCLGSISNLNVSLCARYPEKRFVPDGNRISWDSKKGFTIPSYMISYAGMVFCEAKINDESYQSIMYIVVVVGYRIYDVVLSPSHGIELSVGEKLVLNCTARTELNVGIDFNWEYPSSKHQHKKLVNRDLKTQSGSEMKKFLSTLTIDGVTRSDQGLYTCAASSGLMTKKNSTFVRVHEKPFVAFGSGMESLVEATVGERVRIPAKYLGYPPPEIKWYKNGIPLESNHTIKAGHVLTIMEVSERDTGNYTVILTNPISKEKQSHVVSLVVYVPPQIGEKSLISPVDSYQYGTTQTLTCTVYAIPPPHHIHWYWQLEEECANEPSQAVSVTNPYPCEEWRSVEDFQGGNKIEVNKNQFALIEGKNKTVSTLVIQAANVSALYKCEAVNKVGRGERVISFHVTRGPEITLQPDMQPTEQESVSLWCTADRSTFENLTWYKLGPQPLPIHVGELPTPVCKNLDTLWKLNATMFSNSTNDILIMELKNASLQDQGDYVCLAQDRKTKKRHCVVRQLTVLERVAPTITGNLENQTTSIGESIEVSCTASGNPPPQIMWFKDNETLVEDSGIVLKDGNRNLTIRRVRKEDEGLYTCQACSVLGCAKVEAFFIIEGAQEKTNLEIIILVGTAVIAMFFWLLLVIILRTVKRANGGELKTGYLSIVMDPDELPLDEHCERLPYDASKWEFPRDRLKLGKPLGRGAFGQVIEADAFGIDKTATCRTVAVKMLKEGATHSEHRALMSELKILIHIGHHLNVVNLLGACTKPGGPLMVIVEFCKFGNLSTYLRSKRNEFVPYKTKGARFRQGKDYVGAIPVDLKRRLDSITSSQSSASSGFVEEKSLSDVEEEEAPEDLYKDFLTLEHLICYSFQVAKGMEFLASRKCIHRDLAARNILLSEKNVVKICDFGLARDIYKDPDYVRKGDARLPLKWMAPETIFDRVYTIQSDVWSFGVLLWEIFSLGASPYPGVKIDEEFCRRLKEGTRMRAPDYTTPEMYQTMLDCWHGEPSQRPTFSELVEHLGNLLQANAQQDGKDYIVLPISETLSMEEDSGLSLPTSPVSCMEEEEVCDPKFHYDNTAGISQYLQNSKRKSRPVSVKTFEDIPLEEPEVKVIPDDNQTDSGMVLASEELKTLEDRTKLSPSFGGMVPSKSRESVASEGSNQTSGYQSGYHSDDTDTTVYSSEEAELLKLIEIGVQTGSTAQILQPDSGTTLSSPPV
Assay: Cell mechanistic assay - Inhibition of 3T3 KDR phosphorylation
Conditions: VEGF (30 ng / ml) stimulated KDR phosphorylation in NIH3T3 cells, 30 minutes preincubation

*Q* Dear colleague, please send me the reported IC50 for "Clc1ccc(Nc2ncc(Sc3ccncc3)c3ccccc23)cc1" when you can.
*A* 0.02 to 0.05 µM

*Q* Dear colleague, please send me the reported IC50 for "FC1(F)Oc2ccc(Nc3nnc(Nc4ccc5ncsc5c4)c4ccccc34)cc2O1" when you can.
*A* 0.02 to 0.05 µM

*Q* Dear colleague, please send me the reported IC50 for "Cc1ccc(Nc2nnc(Nc3ccc4ncsc4c3)c3ccccc23)cc1F" when you can.
*A* ≤ 0.02 µM

*Q* Dear colleague, please send me the reported IC50 for "CCN(c1ccc(Nc2nnc(Nc3ccc4ncsc4c3)c3ccccc23)cc1)C(C)C" when you can.
*A* 0.05 to 0.4 µM

*Q* Dear colleague, please send me the reported IC50 for "c1ccc2c(Nc3ccc4ncsc4c3)nnc(Nc3ccc(N4CCCCC4)cc3)c2c1" when you can.
*A* 0.05 to 0.4 µM

*Q* Dear colleague, please send me the reported IC50 for "Clc1ccc(Nc2ncc(Cc3ccncc3)c3ccccc23)cc1" when you can.
*A* 0.02 to 0.05 µM

*Q* Dear colleague, please send me the reported IC50 for "Clc1ccc(Nc2nnc(Nc3ccc4ncsc4c3)c3sccc23)cc1" when you can.
*A* 0.02 to 0.05 µM

*Q* Dear colleague, please send me the reported IC50 for "c1ccc2c(Nc3ccc4ncsc4c3)nnc(Nc3ccc4ncsc4c3)c2c1" when you can.
*A* 0.02 to 0.05 µM

*Q* Dear colleague, please send me the reported IC50 for "CNC(=O)c1cc(Cc2cnc(Nc3ccc(Cl)cc3)c3ccccc23)ccn1" when you can.
*A* 0.02 to 0.05 µM
